biological target: KRAS-G12V (Homo sapiens, UniProt P01116, G12V); assay: SOS-catalyzed nucleotide exchange assay (Procedure A, TR-FRET), KRAS-G12V; assay type: biochemical; conditions: nucleotide exchange, read-out: KRAS G12V GNE IC50
Sequence (P01116 with tags, fused parts or gaps isoform P01116-2 G12V): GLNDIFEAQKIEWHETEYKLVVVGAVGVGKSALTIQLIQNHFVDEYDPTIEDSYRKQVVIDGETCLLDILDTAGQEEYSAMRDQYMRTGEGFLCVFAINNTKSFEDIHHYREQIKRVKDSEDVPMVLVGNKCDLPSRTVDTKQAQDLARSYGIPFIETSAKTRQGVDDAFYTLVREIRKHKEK
pIC50: −log10 of the molar value.
Use 7 as the dividing line for pIC50, with the line itself on the label 1 side and lower values as label 0.

Req: pIC50 >= 7 for C#CC(F)(F)c1c(C)cc2[nH]ncc2c1-c1nccc2c1sc1nc(OC[C@@]34CCCN3C[C@H](F)C4)nc(N3CCOC[C@@](C)(O)C3)c12 ?
Resp: label 0

Req: Would you say C#Cc1c(F)ccc2nc(N)cc(-c3nccc4c3sc3nc(OC[C@@]56CCCN5C[C@H](F)C6)nc(N5CCOC[C@@](C)(O)C5)c34)c12 shows pIC50 at minimum 7?
Resp: label 0

Req: I'd appreciate it if you could say whether C[C@@]1(O)COCCN(c2nc(OC[C@@]34CCCN3C[C@H](F)C4)nc3sc4c(-c5c6cn[nH]c6cc6cccc(Cl)c56)nccc4c23)C1 has pIC50 at least equal to 7.
Resp: label 1

---

Give measured IC50 for each item. Keep answers brief.
target: HRAS (Homo sapiens, UniProt P01112)
Sequence (P01112 with tags, fused parts or gaps): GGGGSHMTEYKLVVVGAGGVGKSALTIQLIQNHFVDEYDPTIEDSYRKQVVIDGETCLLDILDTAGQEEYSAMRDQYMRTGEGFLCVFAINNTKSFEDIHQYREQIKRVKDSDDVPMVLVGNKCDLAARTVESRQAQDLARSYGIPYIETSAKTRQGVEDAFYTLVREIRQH
Output spec: scalar in µM, unitless text.

Req: What measured IC50 is associated with C[C@@]1(O)COCCN(c2nc(OC[C@]3(CN4CC5(CCCOC5)C4)CC3(F)F)nc3sc4c(-c5c(C6(F)CC6)c(Cl)cc6[nH]ncc56)nccc4c23)C1 on HRAS (Homo sapiens, UniProt P01112)?
Resp: 0.943

Req: Record C#Cc1c(F)ccc2cc3[nH]ncc3c(-c3nccc4c3sc3nc(OC[C@@]56CCCN5C[C@H](F)C6)nc(N5CCOC[C@@](C)(O)C5)c34)c12 : what is its IC50 with HRAS (Homo sapiens, UniProt P01112)?
Resp: 5.54

Req: Give IC50 (HRAS (Homo sapiens, UniProt P01112)) of the following compound: C#Cc1c(F)sc2cc3[nH]ncc3c(-c3nccc4c3sc3nc(OC[C@@]56CCCN5C[C@H](F)C6)nc(N5CCOC[C@@](C)(O)C5)c34)c12
Resp: 1.89

Req: Give IC50 (HRAS (Homo sapiens, UniProt P01112)) of the following compound: C[C@@]1(O)COCCN(c2nc(OC[C@]3(CN4CC(CF)C4)CC3(F)F)nc3sc4c(-c5c(C6(F)CC6)c(Cl)cc6[nH]ncc56)nccc4c23)C1
Resp: 1.29

Req: Under HRAS (Homo sapiens, UniProt P01112): IC50 value of CN(C)C[C@@]1(COc2nc(N3CCOC[C@@](C)(O)C3)c3c(n2)sc2c(-c4c(C5CC5)c(Cl)cc5[nH]ncc45)nccc23)CC1(F)F ?
Resp: 0.389

Req: Provide the documented IC50 with HRAS (Homo sapiens, UniProt P01112) as the system for CC1CCc2cc3[nH]ncc3c(-c3nccc4c3sc3nc(OC[C@@]56CCCN5C[C@H](F)C6)nc(N5CCOC[C@@](C)(O)C5)c34)c21 (single isomer, unassigned)
Resp: 8.01

Req: Given the entry COC1(C)CN(C[C@@]2(COc3nc(N4CCOC[C@@](C)(O)C4)c4c(n3)sc3c(-c5c(C6(F)CC6)c(Cl)cc6[nH]ncc56)nccc34)CC2(F)F)C1 , what IC50 was observed with HRAS (Homo sapiens, UniProt P01112)?
Resp: 2.22

Req: Lookup: IC50 / HRAS (Homo sapiens, UniProt P01112) / C#Cc1c(F)ccc2cc(O)cc(-c3nccc4c5c(N6CCOC[C@@](C)(O)C6)nc(OC[C@@]67CCCN6C[C@H](F)C7)nc5n(C)c34)c12
Resp: 1.82

Req: GET /values?readout=IC50&system=HRAS (Homo sapiens, UniProt P01112)&item= C[C@@]1(O)COCCN(c2nc(OC[C@]3(CN4CC5(CCOC5)C4)CC3(F)F)nc3sc4c(-c5c(C6(F)CC6)c(Cl)cc6[nH]ncc56)nccc4c23)C1
Resp: 1.29

Req: What is its IC50 for HRAS (Homo sapiens, UniProt P01112)? Entry: Cc1cc2[nH]ncc2c(-c2nccc3c2sc2nc(OC[C@]4(CN(C)C)CC4(F)F)nc(N4CCOC[C@@](C)(O)C4)c23)c1C(F)(F)F
Resp: 4.92

---

target: KRAS-G13D (Homo sapiens, UniProt P01116, G13D); assay: SOS-catalyzed nucleotide exchange assay (Procedure A, TR-FRET), KRAS-G13D; format: biochemical; settings: nucleotide exchange, Procedure A; read-out: KRAS G13D GNE IC50
Sequence (P01116 with tags, fused parts or gaps isoform P01116-2 G13D): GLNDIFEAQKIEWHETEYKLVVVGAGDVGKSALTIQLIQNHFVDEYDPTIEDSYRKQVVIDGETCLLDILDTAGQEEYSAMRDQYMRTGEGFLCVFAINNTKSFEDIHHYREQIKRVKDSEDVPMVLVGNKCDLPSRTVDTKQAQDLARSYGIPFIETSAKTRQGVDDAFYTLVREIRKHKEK
Please respond with 1 (yes) when measured IC50 is strictly beneath 200 nM, and with 0 (no) in all other cases.

Req: Hi there! Is IC50 for C#Cc1c(F)ccc2cc(N)nc(-c3nccc4c5c(N6CCOC[C@@](C)(O)C6)nc(OC[C@@]67CCCN6C[C@H](F)C7)nc5n(C)c34)c12 [Ex-17] below 200 nM, do you know?
Resp: 0 (no)

Req: Hello, I'm reviewing records and need to know if IC50 of C[C@@]1(O)COCCN(c2nc(OC[C@@]34CCCN3C[C@H](F)C4)nc3sc4c(-c5ccc(F)c6sc(N)c(C#N)c56)cncc4c23)C1 [Ex-274] is below 200 nM. Could you check?
Resp: 1 (yes)

Req: I'd appreciate it if you could check whether C#Cc1c(F)ccc2nc(N)cc(-c3nccc4c3sc3nc(OC[C@@]56CCCN5C[C@H](F)C6)nc(N5CCOC[C@@](C)(O)C5)c34)c12 [Ex-178] has IC50 smaller than 200 nM.
Resp: 0 (no)

Req: Threshold test, IC50 < 200 nM: C/C=C(\C)c1c(C)cc2[nH]ncc2c1-c1nccc2c1sc1nc(OC[C@@]34CCCN3C[C@H](F)C4)nc(N3CCOC[C@@](C)(O)C3)c12 [Ex-65]
Resp: 1 (yes)

Req: Does C=C1CN2C[C@H](F)C[C@@]2(COc2nc(N3CCOC[C@@](C)(O)C3)c3c(n2)sc2c(-c4c(C5CC5)c(Cl)cc5[nH]ncc45)nccc23)C1 [Ex-223] have IC50 strictly under 200 nM?
Resp: 1 (yes)

Req: Just wondering, is IC50 of CC1CCc2cc3[nH]ncc3c(-c3nccc4c3sc3nc(OC[C@@]56CCCN5C[C@H](F)C6)nc(N5CCOC[C@@](C)(O)C5)c34)c21 (single isomer, unassigned) [Ex-103] below 200 nM?
Resp: 1 (yes)

---

molecular target: KRAS-WT (Homo sapiens); assay: SOS-catalyzed nucleotide exchange assay (Procedure A, TR-FRET), KRAS-WT; type: biochemical; conditions: nucleotide exchange, read-out: KRAS WT GNE IC50
Sequence (P01116 with tags, fused parts or gaps isoform P01116-2): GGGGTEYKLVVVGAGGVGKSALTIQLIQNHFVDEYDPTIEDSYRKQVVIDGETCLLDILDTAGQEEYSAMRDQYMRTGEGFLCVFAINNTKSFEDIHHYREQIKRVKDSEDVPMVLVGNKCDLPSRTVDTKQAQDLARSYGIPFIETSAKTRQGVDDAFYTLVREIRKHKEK
measurement.type: pIC50
Please treat pIC50 as minus the base-10 logarithm of the molar concentration.

Req: Please look up its pIC50: C[C@@]1(O)COCCN(c2nc(OC[C@]3(CN4CC5(CCOCC5)C4)CC3(F)F)nc3sc4c(-c5c(C6(F)CC6)c(Cl)cc6[nH]ncc56)nccc4c23)C1 [Ex-248]
Resp: 7.90

Req: Sample Cc1cc2[nH]ncc2c(-c2nccn3c2cc2nc(OC[C@@]45CCCN4C[C@H](F)C5)nc(N4CCOC[C@@](C)(O)C4)c23)c1C1CC1 [Ex-295] — what was its pIC50?
Resp: 6.73

Req: So what does the record say about pIC50 for Cc1cc2[nH]ncc2c(-c2nccc3c2sc2nc(OC[C@@]45CCCN4C[C@H](F)C5)nc(N4CCOC[C@@](C)(O)C4)c23)c1-c1cccs1 [Ex-138] ?
Resp: 6.40

---

target: KRAS-G13D (Homo sapiens, UniProt P01116, G13D); assay: SOS-catalyzed nucleotide exchange assay (Procedure A, TR-FRET), KRAS-G13D; format: biochemical; settings: nucleotide exchange, Procedure A; read-out: KRAS G13D GNE IC50
Consider the cut-off 100 nM. If the recorded IC50 is strictly smaller, the label is true; if not, the label is false.

Req: IC50 under 100 nM? Item: CC[C@@H]1CCCc2cc3[nH]ncc3c(-c3nccc4c3sc3nc(OC[C@@]56CCCN5C[C@H](F)C6)nc(N5CCOC[C@@](C)(O)C5)c34)c21
Resp: true

Req: Criterion: IC50 strictly below 100 nM. Is it met by C#Cc1c(F)sc2cc3[nH]ncc3c(-c3nccc4c3sc3nc(OC[C@@]56CCCN5C[C@H](F)C6)nc(N5CCOC[C@@](C)(O)C5)c34)c12 ?
Resp: true

Req: Quick check: does CCOc1c(C)cc2[nH]ncc2c1-c1nccc2c1sc1nc(OC[C@@]34CCCN3C[C@H](F)C4)nc(N3CCOC[C@@](C)(O)C3)c12 have IC50 under 100 nM?
Resp: false

Req: Quick check: does C[C@@]1(O)COCCN(c2nc(OC[C@@]34CCCN3C/C(=C\F)C4)nc3sc4c(-c5c(C6(F)CC6)c(Cl)cc6[nH]ncc56)nccc4c23)C1 have IC50 under 100 nM?
Resp: true

Req: Lab note: IC50 threshold 100 nM. Does this compound come in strictly under it? CCC1CCc2cc3[nH]ncc3c(-c3nccc4c3sc3nc(OC[C@@]56CCCN5C[C@H](F)C6)nc(N5CCOC[C@@](C)(O)C5)c34)c21 (stereo partly drawn)
Resp: true

Req: Regarding Cc1cc2[nH]ncc2c(-c2nccc3c2sc2nc(OC[C@@]45CCCN4C[C@H](F)C5)nc(NC4COC4)c23)c1C(F)(F)F , kindly confirm whether its IC50 is beneath 100 nM.
Resp: false
